# TARGET: human PDE9A (Homo sapiens, UniProt O76083)
# Construct: full-length human PDE1A (NP_001003683.1), PDE1C (NP_005011.1), PDE5A (NP_001074.2), PDE7B (NP_061818.1) and PDE9A (NP_002597.1); HIS (N); made in house; host or cells: Sf9 (baculovirus, pFastBac1)
# Sequence (O76083 whole entry): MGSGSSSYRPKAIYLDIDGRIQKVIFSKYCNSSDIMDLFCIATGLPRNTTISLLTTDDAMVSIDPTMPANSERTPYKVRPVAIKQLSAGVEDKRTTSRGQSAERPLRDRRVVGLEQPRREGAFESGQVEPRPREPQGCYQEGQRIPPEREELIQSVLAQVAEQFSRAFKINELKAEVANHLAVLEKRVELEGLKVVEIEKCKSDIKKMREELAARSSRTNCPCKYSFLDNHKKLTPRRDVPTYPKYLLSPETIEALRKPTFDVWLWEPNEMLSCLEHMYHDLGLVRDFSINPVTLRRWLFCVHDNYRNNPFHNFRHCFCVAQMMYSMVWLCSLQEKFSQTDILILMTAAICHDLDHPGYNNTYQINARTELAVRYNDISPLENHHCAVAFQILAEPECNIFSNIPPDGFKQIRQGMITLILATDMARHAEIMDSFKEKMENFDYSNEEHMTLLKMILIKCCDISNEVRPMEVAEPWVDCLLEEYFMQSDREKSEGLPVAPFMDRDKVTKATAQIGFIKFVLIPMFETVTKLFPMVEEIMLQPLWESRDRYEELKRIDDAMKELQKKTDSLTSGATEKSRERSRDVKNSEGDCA
# PROCEDURE TEXT: PDE enzyme assay using [3H]cGMP as substrate (SPA), PDE9A
# Format: biochemical
# EXPERIMENTAL CONDITIONS: human PDE9A 1 nM, [3H]cGMP 20 nM
PROPERTY MEASURED: IC50

{"columns": ["COMPOUND", "PROPERTY MEASURED", "READING"],
 "data": [
  ["CCCCn1c(=O)c2nnc(C3(C)CC3)n2c2ncccc21 [Example 1]", "IC50", "> 10000 nM"]
]}
